Assay: Pharmacokinetics after intravenous and oral administration in rats
Type: in vivo
Settings: rat, plasma, iv dosing, dose 1 mg/kg, read-out: Vss
Labelling field: enter 1.0 if recorded Vd is less than 2 L/kg. Enter 0.0 if it equals or exceeds that cut-off.

input: Hi there! Is Vd for CC(=O)N1CC2CC(Nc3nc(Nc4cnn(-c5ccccn5)c4)ncc3Cl)CC2C1 (stereo not drawn) below 2 L/kg, do you know?
output: 1.0

input: Consider the compound Cn1cc(Nc2ncc(Cl)c(NC3CC4CN(c5ccc(C#N)nn5)CC4C3)n2)cn1 (stereo not drawn) . Is its Vd strictly less than 2 L/kg?
output: 1.0

input: Field: below-cutoff. Rule: recorded Vd strictly less than 2 L/kg. Subject: "CC(C)(O)Cn1cc(Nc2ncc(Cl)c(NC3CCC4(CC3)CCN(S(C)(=O)=O)CC4)n2)cn1"
output: 0.0

input: # strict comparison: is reported Vd < 2 L/kg? input = CC(=O)N1CC2CC(Nc3nc(Nc4cnn(CC(C)(C)O)c4)ncc3Cl)CC2C1 (stereo not drawn)
output: 1.0

input: Dear colleague, could you confirm whether Vd of CC(C)(O)Cn1cc(Nc2ncc(Cl)c(NC3CC4CN(S(C)(=O)=O)CC4C3)n2)cn1 (stereo not drawn) falls below 2 L/kg? Thanks.
output: 1.0

---

Reported IC50, Aurora-B (h) (Homo sapiens (Human), UniProt Q96GD4).
Provide the reading as a plain figure in nM.

input: Check the records and state IC50 for CC(O)Cn1cc(Nc2ncc(Cl)c(NC3CC4CN(S(=O)(=O)CC5CC5)CC4C3)n2)cn1 (stereo not shown)
output: 1

input: Please list IC50 recorded for the molecule CCOC(=O)N1CC2CC(Nc3nc(Nc4cnn(C)c4)ncc3Cl)CC2C1 (stereo not shown)
output: 2

input: Given the molecule CCNS(=O)(=O)N1CC2CC(Nc3nc(Nc4cnn(C)c4)ncc3Cl)CC2C1 (stereo not shown) , write its reported IC50.
output: 0.7

input: # return recorded IC50 for entry CC(C)(O)Cn1cc(Nc2ncc(Cl)c(NC3CC4CN(S(C)(=O)=O)CC4C3)n2)cn1 (stereo not shown)
output: 1

---

Target: JAK2 (h) (Homo sapiens (Human), UniProt O60674)
Sequence (O60674 whole entry): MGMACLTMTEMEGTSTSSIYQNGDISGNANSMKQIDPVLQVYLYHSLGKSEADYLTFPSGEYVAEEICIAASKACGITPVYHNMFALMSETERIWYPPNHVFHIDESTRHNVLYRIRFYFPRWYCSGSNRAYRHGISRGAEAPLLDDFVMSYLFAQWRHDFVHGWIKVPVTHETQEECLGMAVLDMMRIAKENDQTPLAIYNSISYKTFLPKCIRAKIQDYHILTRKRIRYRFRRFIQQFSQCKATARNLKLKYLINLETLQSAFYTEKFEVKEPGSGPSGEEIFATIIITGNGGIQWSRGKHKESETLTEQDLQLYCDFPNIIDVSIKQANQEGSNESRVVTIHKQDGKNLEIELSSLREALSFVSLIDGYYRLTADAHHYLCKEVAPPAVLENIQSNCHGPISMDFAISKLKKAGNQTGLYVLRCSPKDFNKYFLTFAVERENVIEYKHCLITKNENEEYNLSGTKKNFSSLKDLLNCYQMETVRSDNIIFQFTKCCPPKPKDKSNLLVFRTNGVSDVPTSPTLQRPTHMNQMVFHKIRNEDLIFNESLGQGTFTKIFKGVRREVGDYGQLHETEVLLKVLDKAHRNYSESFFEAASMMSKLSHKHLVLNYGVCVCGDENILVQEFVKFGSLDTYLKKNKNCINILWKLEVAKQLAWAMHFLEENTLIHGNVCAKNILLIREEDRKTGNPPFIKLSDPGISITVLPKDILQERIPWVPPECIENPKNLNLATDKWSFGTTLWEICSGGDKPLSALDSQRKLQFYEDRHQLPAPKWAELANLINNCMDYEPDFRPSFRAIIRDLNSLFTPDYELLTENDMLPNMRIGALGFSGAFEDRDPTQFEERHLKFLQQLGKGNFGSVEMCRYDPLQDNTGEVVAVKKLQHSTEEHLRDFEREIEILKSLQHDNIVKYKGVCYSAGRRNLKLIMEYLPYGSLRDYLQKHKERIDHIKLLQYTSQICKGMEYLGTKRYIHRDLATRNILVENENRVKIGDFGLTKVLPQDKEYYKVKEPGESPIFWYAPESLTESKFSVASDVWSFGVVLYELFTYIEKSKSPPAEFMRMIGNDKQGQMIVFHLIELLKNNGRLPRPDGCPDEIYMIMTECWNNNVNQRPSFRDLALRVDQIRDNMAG
test-readout: IC50 (nM)
Reply with just the number (in nM).

input: Report its IC50 with JAK2 (h) (Homo sapiens (Human), UniProt O60674) as the test system: "CC(C)(O)Cn1cc(Nc2ncc(Cl)c(NC3CCC4(CC3)CCN(S(C)(=O)=O)CC4)n2)cn1"
output: 131

---

Test: Pharmacokinetics after intravenous and oral administration in rats
Type: in vivo
Conditions: rat, plasma, iv dosing, dose 1 mg/kg
Task for the reader: assign each of the following compounds its reported AUC(0-t).

input: Give a short answer stating reported AUC(0-t) for Cn1cc(Nc2ncc(Cl)c(NC3CC4CN(C(=O)N5CCOCC5)CC4C3)n2)cn1 (stereo not shown) .
output: 413 ng·h/mL

input: Supply recorded AUC(0-t) for CC(=O)N1CC2CC(CC#N)(Nc3nc(Nc4cnn(C)c4)ncc3Cl)CC2C1 (stereo not shown) here.
output: 485 ng·h/mL

input: Write down AUC(0-t) measured for item CC(O)Cn1cc(Nc2ncc(Cl)c(NC3CC4CN(S(=O)(=O)NC5CC5)CC4C3)n2)cn1 (stereo not shown)
output: 239 ng·h/mL

input: # return recorded AUC(0-t) for entry Cn1cc(Nc2ncc(Cl)c(NC3CC4CN(C(=O)c5ccccc5)CC4C3)n2)cn1 (stereo not shown)
output: 218 ng·h/mL
